# credit: the supplement of paper PMC12669032

# System: Bacteroides stercoris
# test: growth AUC relative to DMSO control (median of replicates) (fraction); higher = more growth (less inhibition), active = hit call of the paper
# conditions: 20 µM; 24 h
Label Condition met for high-side growth AUC (at or above 1) and Condition not met for low-side growth AUC (below it).

Worked examples, 4 compounds total:
- compound: "O=C(NCCc1ncc(C(F)(F)F)cc1Cl)c1ccccc1C(F)(F)F"
  answer label: "Condition not met"
- compound: "CC/C(=N\\OC/C=C/Cl)C1=C(O)CC(C2CCOCC2)CC1=O (stereo unspecified)"
  answer label: "Condition met"
- compound: "O=C(Nc1ccccc1)Nc1cnns1"
  answer label: "Condition met"
- compound: "C[C@@H](Oc1ccc(Oc2ccc(C(F)(F)F)cn2)cc1)C(=O)O"
  answer label: "Condition met"

Entry COC(=O)c1ccccc1S(=O)(=O)NC(=O)Nc1nc(C)cc(C)n1 : is its growth AUC no less than 1? Condition not met

* * *

# Test system: Akkermansia muciniphila
# test: growth AUC relative to DMSO control (median of replicates) (fraction); higher = more growth (less inhibition), active = hit call of the paper
# conditions: 20 µM; 24 h
Reported growth AUC values follow for various compounds
Number only, please.

Observe how each entry below is paired with its result.
- compound: "c1nc[n]([Sn]([CH]2CCCCC2)([CH]2CCCCC2)[CH]2CCCCC2)n1"
  growth AUC: 1.02
- compound: "CCOP(=O)(OCC)O/C(=C/Br)c1ccc(Cl)cc1Cl"
  growth AUC: 1.06
- compound: "Nc1c(Cl)cc([N+](=O)[O-])cc1Cl"
  growth AUC: 0.958
- compound: "Clc1nc(Cl)nc(Nc2ccccc2Cl)n1"
  growth AUC: 1.04
- compound: "OC(Cc1ccccc1Cl)(Cn1[nH]cnc1=S)C1(Cl)CC1 (configuration not stated)"
  growth AUC: 1.02

Quick check: growth AUC of CCCOCCN(C(=O)CCl)c1c(CC)cccc1CC ? 1.11

So what's the measured growth AUC for this one? Clc1ccc(Cl)cc1 1.01

Could you tell me which growth AUC is on file for COCC(=O)N(c1c(C)cccc1C)N1CCOC1=O ? 0.966

So what does the record say about growth AUC for CCCCCCCCn1sccc1=O ? 1.04

Request the reported growth AUC associated with CC(C)C1(C)N=C(c2nc3ccccc3cc2C(=O)O)NC1=O (configuration not stated) 0.971

Entry COCC(=O)N(c1c(C)cccc1C)[C@@H](C)C(=O)OC has what growth AUC? 1.19

May I ask what growth AUC has been recorded for COP(N)(=O)SC (configuration not stated) ? 1.22

* * *

This listing pairs molecules with measured growth AUC.
# Tested on: Eubacterium rectale
# test: growth AUC relative to DMSO control (median of replicates) (fraction); higher = more growth (less inhibition), active = hit call of the paper
# conditions: 20 µM; 24 h
Form: value (number only, do not type unit).

Reference set, count: 6
- molecule: "COC(=O)N(C(=O)N1CO[C@@]2(C(=O)OC)Cc3cc(Cl)ccc3C2=N1)c1ccc(OC(F)(F)F)cc1"
  assay target: "Eubacterium rectale"
  readout type: "growth AUC"
  measurement: 1.09
- molecule: "CCS(=O)(=O)CCSP(=O)(OC)OC"
  assay target: "Eubacterium rectale"
  readout type: "growth AUC"
  measurement: 0.935
- molecule: "CC(Cl)(Cl)C(=O)O"
  assay target: "Eubacterium rectale"
  readout type: "growth AUC"
  measurement: 0.996
- molecule: "COP(=S)(OC)Oc1ccc(S(C)(=O)=O)c(C)c1"
  assay target: "Eubacterium rectale"
  readout type: "growth AUC"
  measurement: 1
- molecule: "N#Cc1c[nH]cc1-c1cccc2c1OC(F)(F)O2"
  assay target: "Eubacterium rectale"
  readout type: "growth AUC"
  measurement: 0.857
- molecule: "CCOc1ccccc1OS(=O)(=O)NC(=O)Nc1nc(OC)cc(OC)n1"
  assay target: "Eubacterium rectale"
  readout type: "growth AUC"
  measurement: 0.938

Next, consider the following molecule.
Entry CCCN(CC)CC1COC2(CCC(C(C)(C)C)CC2)O1 (configuration not stated) has what growth AUC? 0.987
